Taken from ChEMBL document CHEMBL5316286.

Molecular target: E3 ubiquitin-protein ligase CHIP (Homo sapiens)
Assay: Inhibition of N-terminal Flag-tagged full-length U-box E3 CHIP (unknown origin)-mediated CDK4 monoubiquitination expressed in Escherichia coli BL21 (DE3) cells upto 50 uM preincubated for 30 mins followed by ubiquitin addition measured after 1 hr by Western blot analysis
Settings: time 90.0 min
The source made the active and inactive calls. The rule behind the calls is not given here.
Labels: active, inactive

Test Smiles	System Under Test	Label Value
COc1ccc(S(=O)(=O)N(CC(=O)N[C@H](CCCCN)CN(CC(=O)N[C@H](CCCCN)CN(CC(=O)N[C@H](CC(C)C)CN(CC(=O)N[C@H](CCCCN)CN(CC(=O)N[C@@H]2CCCCNC(=O)c3ccc(cc3)C(=O)NCCCC[C@H](CN(CC(N)=O)S(C)(=O)=O)NC(=O)CN(S(C)(=O)=O)C[C@@H](CCCCN)NC(=O)CN(S(C)(=O)=O)C2)S(C)(=O)=O)S(=O)(=O)CCN)S(=O)(=O)CCN)S(C)(=O)=O)C[C@@H](CCCCN)NC(C)=O)cc1	E3 ubiquitin-protein ligase CHIP (Homo sapiens)	inactive
COc1ccc(S(=O)(=O)N(CC(=O)N[C@@H]2CCCCNC(=O)c3ccc(cc3)C(=O)NCCCC[C@H](CN(CC(=O)N[C@H](CCCCN)CN(CC(=O)N[C@H](CC(C)C)CN(CC(=O)N[C@H](CCCCN)CN(CC(=O)N[C@H](CC(C)C)CN(CC(N)=O)S(=O)(=O)CCN)S(C)(=O)=O)S(=O)(=O)CC(C)C)S(C)(=O)=O)S(C)(=O)=O)NC(=O)CN(S(=O)(=O)CCN)C[C@@H](CCCCN)NC(=O)CN(S(C)(=O)=O)C2)C[C@@H](CCCCN)NC(C)=O)cc1	E3 ubiquitin-protein ligase CHIP (Homo sapiens)	active

* * *

Biological target: E3 ubiquitin-protein ligase CHIP (Homo sapiens)
Experiment: Inhibition of N-terminal Flag-tagged full-length U-box E3 CHIP (unknown origin)-mediated CDK4 monoubiquitination expressed in Escherichia coli BL21 (DE3) cells upto 50 uM preincubated for 30 mins followed by ubiquitin addition measured after 1 hr by Western blot analysis
Settings: time 90.0 min
The source made the active and inactive calls. The calls are words filed in the database; no cut-off is given here.
Value Kind: inhibition

Test Smiles	Value Kind	Result Value
CC(=O)N[C@H](CO)CN(CC(=O)N[C@H](C)CN(CC(=O)N[C@H](CCCCN)CN(CC(=O)N[C@H](CC(C)C)CN(CC(=O)N[C@H](CCCCN)CN(CC(=O)N[C@@H]1CCCCNC(=O)c2ccc(cc2)C(=O)NCCCC[C@H](CN(CC(N)=O)S(C)(=O)=O)NC(=O)CN(S(=O)(=O)CC(C)C)C[C@@H](CCC(=O)O)NC(=O)CN(S(C)(=O)=O)C1)S(C)(=O)=O)S(=O)(=O)CCN)S(=O)(=O)CCN)S(=O)(=O)CC(C)C)S(=O)(=O)CC(C)C	inhibition	inactive
CC(=O)N[C@H](CO)CN(CC(=O)N[C@@H]1CCCCNC(=O)c2ccc(cc2)C(=O)NCCCC[C@H](CN(CC(=O)N[C@H](CCCCN)CN(CC(=O)N[C@H](CC(C)C)CN(CC(=O)N[C@H](CCC(=O)O)CN(CC(=O)N[C@H](CCCCN)CN(CC(N)=O)S(=O)(=O)CCN)S(=O)(=O)CC(C)C)S(=O)(=O)CCN)S(C)(=O)=O)S(C)(=O)=O)NC(=O)CN(S(=O)(=O)CCN)C[C@@H](CCCCN)NC(=O)CN(S(C)(=O)=O)C1)S(=O)(=O)CC(C)C	inhibition	inactive
CC(=O)N[C@H](CO)CN(CC(=O)N[C@H](C)CN(CC(=O)N[C@H](CCCCN)CN(CC(=O)N[C@@H]1CCCCNC(=O)c2ccc(cc2)C(=O)NCCCC[C@H](CN(CC(=O)N[C@H](CCC(=O)O)CN(CC(=O)N[C@H](CCCCN)CN(CC(N)=O)S(=O)(=O)CCN)S(=O)(=O)CC(C)C)S(C)(=O)=O)NC(=O)CN(S(C)(=O)=O)C[C@@H](CCCCN)NC(=O)CN(S(C)(=O)=O)C1)S(=O)(=O)CCN)S(=O)(=O)CC(C)C)S(=O)(=O)CC(C)C	inhibition	inactive
